Provenance of the data: patent US11566007B2

# Measurement Target: KRAS G12D (Homo sapiens (Human), UniProt P01116+P62937, G12D)
# Sequence (P01116-2 other isoform, or with tags, fused parts or gaps G12D): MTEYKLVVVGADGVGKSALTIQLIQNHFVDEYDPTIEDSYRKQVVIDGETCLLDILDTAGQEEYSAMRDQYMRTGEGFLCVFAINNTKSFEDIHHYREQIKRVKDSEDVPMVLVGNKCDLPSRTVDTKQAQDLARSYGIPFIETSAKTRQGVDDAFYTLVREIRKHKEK
# Sequence (P62937 whole entry): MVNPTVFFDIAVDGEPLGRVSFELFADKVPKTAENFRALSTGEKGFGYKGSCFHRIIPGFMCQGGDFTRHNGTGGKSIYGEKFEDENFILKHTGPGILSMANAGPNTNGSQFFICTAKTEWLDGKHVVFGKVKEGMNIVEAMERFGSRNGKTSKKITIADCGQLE
# Assay Text: Ras-Raf (BRAF RBD) disruption / FRET / MOA assay, KRAS G12D
# Format: biochemical
# Condition Notes: Ras-Raf disruption/FRET/MOA assay; class symbols; read-out: KRAS G12D FRET data IC50
pIC50: −log10 of the molar value.
Items are presented alongside their recorded pIC50.

Molecule | pIC50
CO[C@@H](C)c1ncccc1-c1c2c3cc(ccc3n1CC(F)(F)F)-c1csc(n1)C[C@H](NC(=O)[C@@H](COC1CN(C(=O)C#CC(C)(C)N(C)C)C1)C(C)C)C(=O)N1CCC[C@H](N1)C(=O)OCC(C)(C)C2 (atropisomer, axis not shown) [Example A343] | < 5.00
CCn1c(-c2cccnc2[C@H](C)OC)c2c3cc(ccc31)N1CCC[C@@H](C[C@H](NC(=O)[C@H](C(C)C)N(C)C(=O)C3(F)CCN(C(=O)C#CC(C)(C)N(C)C)CC3)C(=O)N3CCC[C@H](N3)C(=O)OCC(C)(C)C2)C1 (atropisomer, axis not shown) [Example A615] | < 5.00
C=CC(=O)N1CC2(C1)CN(C(=O)N(C)[C@H](C(=O)N[C@H]1Cc3nc(cs3)-c3ccc4c(c3)c(c(-c3cccnc3[C@H](C)OC)n4CC)CC(C)(C)COC(=O)[C@@H]3CCCN(N3)C1=O)C(C)C)C2 (atropisomer, axis not shown) [Example A419] | 5.00 to 6.00
CCn1c(-c2cccnc2COC)c2c3cc(ccc31)-c1cc(O)cc(c1)C[C@H](NC(=O)[C@H](C(C)C)N(C)C(=O)[C@H]1CCC(C(=O)/C=C\CN(C)C)C1)C(=O)N1CCC[C@H](N1)C(=O)OCC(C)(C)C2 (stereo partly shown) [Example A161] | < 5.00
